Target: UniProtKB P07711
Sequence (P07711 114-333, species assumed): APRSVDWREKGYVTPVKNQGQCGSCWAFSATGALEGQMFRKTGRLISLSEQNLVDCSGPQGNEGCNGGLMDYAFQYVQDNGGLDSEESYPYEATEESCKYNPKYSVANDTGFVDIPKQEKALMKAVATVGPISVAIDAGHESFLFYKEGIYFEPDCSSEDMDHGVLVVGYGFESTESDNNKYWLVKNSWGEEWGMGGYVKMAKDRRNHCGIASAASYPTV
Experiment: Cathepsin L inhibition, fluorogenic peptide substrate kinetic assay (selectivity ratio vs cathepsin S)
Format: biochemical
Conditions: ratio of cathepsin L inhibition constant to cathepsin S inhibition constant
Test readout: Selectivity for Cat. S over Cat. L

Line notation | Test readout | Experimental result
CC(C)(C)C[C@H](Nc1nc2ccccc2o1)C(=O)N[C@@H](CC(=O)OC(C)(C)C)CN1CCc2cc(F)ccc21 | Selectivity for Cat. S over Cat. L | ++ (++, >100)
COc1ccc(NCCNC(=O)[C@H](CC2CCCCC2)Nc2nc3ccccc3s2)cc1 | Selectivity for Cat. S over Cat. L | ++ (++, >100)
CC(C)(C)C[C@H](Nc1nc2ccccc2o1)C(=O)N[C@@H](CO)CN1CCc2cc(F)ccc21 | Selectivity for Cat. S over Cat. L | +++ (+++, >1000)
CC(C)(C)C[C@H](Nc1nc2ccccc2o1)C(=O)N[C@H](CN1CCc2cc(F)ccc21)CS(C)(=O)=O | Selectivity for Cat. S over Cat. L | +++ (+++, >1000)
O=C(NCCN1CCc2cc(F)ccc21)[C@H](CC1CCCCC1)Nc1nc2ccccc2s1 | Selectivity for Cat. S over Cat. L | + (+, >10)
CC(C)(C)C[C@H](Nc1cnccn1)C(=O)NCCN1CCc2cc(F)ccc21 | Selectivity for Cat. S over Cat. L | + (+, >10)
CC(C)(C)OC(=O)C[C@@H](CN1CCc2cc(F)ccc21)NC(=O)[C@H](CC1CCCCC1)Nc1nc2ccccc2o1 | Selectivity for Cat. S over Cat. L | ++ (++, >100)
CC(C)(C)C[C@H](Nc1nc2ccccc2o1)C(=O)N[C@@H](CC(=O)O)CN1CCc2cc(F)ccc21 | Selectivity for Cat. S over Cat. L | +++ (+++, >1000)
CC(C)(C)C[C@H](Nc1nccc2ccccc12)C(=O)NCCN1CCc2cc(F)ccc21 | Selectivity for Cat. S over Cat. L | + (+, >10)
O=C(N[C@H](CNc1ccc(F)cc1)COCc1ccccc1)[C@H](CC1CCCCC1)Nc1nc2ccccc2o1 | Selectivity for Cat. S over Cat. L | ++ (++, >100)
CCOC(=O)C[C@@H](CN1CCc2cc(F)ccc21)NC(=O)[C@H](CC1CCCCC1)Nc1nc2ccc(Cl)cc2s1 | Selectivity for Cat. S over Cat. L | ++ (++, >100)
CC(C)(C)C[C@H](Nc1nc2ccccc2o1)C(=O)N[C@@H](CCS(C)(=O)=O)CN1CCc2cc(F)ccc21 | Selectivity for Cat. S over Cat. L | +++ (+++, >1000)
CC(C)(C)C[C@H](Nc1nc2ccccc2o1)C(=O)N[C@@H](COCc1ccccc1)CN1CCc2cc(F)ccc21 | Selectivity for Cat. S over Cat. L | +++ (+++, >1000)
O=C(NCCNc1ccc(F)cc1)[C@H](CC1CCCCC1)Nc1nc2ccc(Cl)cc2s1 | Selectivity for Cat. S over Cat. L | + (+, >10)

====

Biological target: Cathepsin K (Homo sapiens)
Sequence (P43235 115-329): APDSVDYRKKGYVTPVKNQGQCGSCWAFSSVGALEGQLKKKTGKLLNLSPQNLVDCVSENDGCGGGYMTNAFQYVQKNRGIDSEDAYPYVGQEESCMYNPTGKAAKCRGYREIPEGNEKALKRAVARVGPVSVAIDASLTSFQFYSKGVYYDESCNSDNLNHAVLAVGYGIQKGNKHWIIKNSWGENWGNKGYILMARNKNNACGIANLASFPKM
Assay: Cathepsin K inhibition, fluorogenic peptide substrate kinetic assay (selectivity ratio vs cathepsin S)
Type: biochemical
Conditions: ratio of cathepsin K inhibition constant to cathepsin S inhibition constant
Test readout: Selectivity for Cat. S over Cat. K

Compound | Experimental result
CC(C)(C)C[C@H](Nc1nc2ccccc2o1)C(=O)N[C@H](CN1CCc2cc(F)ccc21)CS(C)(=O)=O [Example 12] | ++ (++, >100)
O=C(NCCN1CCc2cc(F)ccc21)[C@H](CC1CCCCC1)Nc1nc2ccccc2s1 [Example 16] | ++ (++, >100)
CC(C)(C)C[C@H](Nc1nc2ccccc2o1)C(=O)N[C@@H](COCc1ccccc1)CN1CCc2cc(F)ccc21 [Example 6] | + (+, >10)
O=C(NCCNc1ccc(F)cc1)[C@H](CC1CCCCC1)Nc1nc2ccc(Cl)cc2s1 [Example 21] | + (+, >10)

====

Target: Cathepsin K (Homo sapiens, UniProt P43235)
Test: Cathepsin K inhibition, fluorogenic peptide substrate kinetic assay (selectivity ratio vs cathepsin S)
Format: biochemical
Conditions: ratio of cathepsin K inhibition constant to cathepsin S inhibition constant
Test readout: Selectivity for Cat. S over Cat. K

Line notation | Experimental result
CC(C)(C)C[C@H](Nc1nc2ccccc2o1)C(=O)N[C@@H](CC(=O)OC(C)(C)C)CN1CCc2cc(F)ccc21 | ++ (++, >100)
CC(C)(C)C[C@H](Nc1cnccn1)C(=O)NCCN1CCc2cc(F)ccc21 | + (+, >10)
Cc1sc(N[C@@H](CC2CCCCC2)C(=O)NCCN2CCc3cc(F)ccc32)nc1-c1ccccc1 | + (+, >10)
CCOC(=O)C[C@@H](CN1CCc2cc(F)ccc21)NC(=O)[C@H](CC1CCCCC1)Nc1nc2ccc(Cl)cc2s1 | +++ (+++, >1000)
CC(C)(C)C[C@H](Nc1nc2ccccc2o1)C(=O)N[C@@H](CO)CN1CCc2cc(F)ccc21 | + (+, >10)
CC(C)(C)C[C@H](Nc1nc2ccccc2o1)C(=O)N[C@@H](CCS(C)(=O)=O)CN1CCc2cc(F)ccc21 | + (+, >10)
O=C(N[C@H](CNc1ccc(F)cc1)COCc1ccccc1)[C@H](CC1CCCCC1)Nc1nc2ccccc2o1 | ++ (++, >100)
CC(C)(C)OC(=O)C[C@@H](CN1CCc2cc(F)ccc21)NC(=O)[C@H](CC1CCCCC1)Nc1nc2ccccc2o1 | ++ (++, >100)
COc1ccc(NCCNC(=O)[C@H](CC2CCCCC2)Nc2nc3ccccc3s2)cc1 | +++ (+++, >1000)
CC(C)(C)C[C@H](Nc1nc2ccccc2o1)C(=O)N[C@@H](CC(=O)O)CN1CCc2cc(F)ccc21 | ++ (++, >100)

====

Biological target: Cathepsin B (Homo sapiens, UniProt P07858)
Assay: Cathepsin B inhibition, fluorogenic peptide substrate kinetic assay (selectivity ratio vs cathepsin S)
Format: biochemical
Details: ratio of cathepsin B inhibition constant to cathepsin S inhibition constant

Molecule | Selectivity for Cat. S over Cat. B
CC(C)(C)C[C@H](Nc1nc2ccccc2o1)C(=O)N[C@@H](CC(=O)OC(C)(C)C)CN1CCc2cc(F)ccc21 [Example 3] | ++ (++, >100)
Cc1sc(N[C@@H](CC2CCCCC2)C(=O)NCCN2CCc3cc(F)ccc32)nc1-c1ccccc1 [Example 20] | + (+, >10)
O=C(NCCNc1ccc(F)cc1)[C@H](CC1CCCCC1)Nc1nc2ccc(Cl)cc2s1 [Example 21] | ++ (++, >100)
CCOC(=O)C[C@@H](CN1CCc2cc(F)ccc21)NC(=O)[C@H](CC1CCCCC1)Nc1nc2ccc(Cl)cc2s1 [Example 30] | +++ (+++, >1000)
CC(C)(C)C[C@H](Nc1cnccn1)C(=O)NCCN1CCc2cc(F)ccc21 [Example 18] | + (+, >10)
CC(C)(C)OC(=O)C[C@@H](CN1CCc2cc(F)ccc21)NC(=O)[C@H](CC1CCCCC1)Nc1nc2ccccc2o1 [Example 9] | +++ (+++, >1000)
CC(C)(C)C[C@H](Nc1nc2ccccc2o1)C(=O)N[C@@H](CCS(C)(=O)=O)CN1CCc2cc(F)ccc21 [Example 5] | +++ (+++, >1000)
CC(C)(C)C[C@H](Nc1nc2ccccc2o1)C(=O)N[C@@H](COCc1ccccc1)CN1CCc2cc(F)ccc21 [Example 6] | +++ (+++, >1000)
O=C(NCCN1CCc2cc(F)ccc21)[C@H](CC1CCCCC1)Nc1nc2ccccc2s1 [Example 16] | ++ (++, >100)
CC(C)(C)C[C@H](Nc1nc2ccccc2o1)C(=O)N[C@@H](CC(=O)O)CN1CCc2cc(F)ccc21 [Example 4] | +++ (+++, >1000)
COc1ccc(NCCNC(=O)[C@H](CC2CCCCC2)Nc2nc3ccccc3s2)cc1 [Example 17] | +++ (+++, >1000)
CC(C)(C)C[C@H](Nc1nccc2ccccc12)C(=O)NCCN1CCc2cc(F)ccc21 [Example 19] | +++ (+++, >1000)
CC(C)(C)C[C@H](Nc1nc2ccccc2o1)C(=O)N[C@@H](CO)CN1CCc2cc(F)ccc21 [Example 7] | +++ (+++, >1000)
CC(C)(C)C[C@H](Nc1nc2ccccc2o1)C(=O)N[C@H](CN1CCc2cc(F)ccc21)CS(C)(=O)=O [Example 12] | +++ (+++, >1000)
O=C(N[C@H](CNc1ccc(F)cc1)COCc1ccccc1)[C@H](CC1CCCCC1)Nc1nc2ccccc2o1 [Example 11] | ++ (++, >100)
